# TARGET OR SYSTEM: Recombinant STAT3 protein (STAT3 (G127-I722)) (Homo sapiens, UniProt P40763)
# Construct: Recombinant STAT3 protein (STAT3 (G127-I722))
# Sequence (P40763 127-722): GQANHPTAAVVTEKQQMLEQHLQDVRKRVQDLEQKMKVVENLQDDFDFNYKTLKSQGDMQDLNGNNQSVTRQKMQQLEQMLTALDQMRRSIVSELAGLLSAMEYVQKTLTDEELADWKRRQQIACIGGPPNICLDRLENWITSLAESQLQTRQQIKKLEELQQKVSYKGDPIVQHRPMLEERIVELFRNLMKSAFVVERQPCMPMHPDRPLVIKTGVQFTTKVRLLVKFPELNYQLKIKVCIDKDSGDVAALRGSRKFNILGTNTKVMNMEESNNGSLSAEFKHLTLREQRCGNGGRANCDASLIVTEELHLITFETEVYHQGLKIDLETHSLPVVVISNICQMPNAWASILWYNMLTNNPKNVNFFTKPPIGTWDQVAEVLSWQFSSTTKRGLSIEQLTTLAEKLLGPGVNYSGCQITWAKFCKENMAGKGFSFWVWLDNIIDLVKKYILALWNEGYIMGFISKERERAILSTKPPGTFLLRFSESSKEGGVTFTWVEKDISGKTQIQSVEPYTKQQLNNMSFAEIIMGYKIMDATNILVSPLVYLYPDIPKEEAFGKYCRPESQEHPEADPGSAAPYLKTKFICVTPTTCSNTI
# EXPERIMENT SUMMARY: STAT3 Fluorescence Polarization (FP) Assay
# Format: binding
# EXPERIMENTAL CONDITIONS: STAT3 25 nM, probe 5-FAM-GpYLPQTV-NH2 2 nM, 45-minute incubation; read-out: STAT3 (FP assay IC50)
pIC50: −log10 of the molar value.
QUANTITY MEASURED: pIC50

COMPOUND: O=C(N[C@H]1CCCC[C@H]2CC[C@@H](C(=O)N3CC(NC(=O)C4CC4)(c4ccccn4)C3)N2C1=O)c1cc2cc(C(F)(F)P(=O)(O)O)ccc2s1 [Compound 123]
RESULT: > 7.00
//
COMPOUND: O=C(N[C@H]1CCCC[C@H]2CC[C@@H](C(=O)N3CC(C(=O)N4CCOCC4)C3)N2C1=O)c1cc2cc(C(F)(F)P(=O)(O)O)ccc2s1 [Compound 93]
RESULT: 6.00 to 7.00
//
COMPOUND: N#C[C@H]1CN(C(=O)[C@@H]2CC[C@@H]3CCCC[C@H](NC(=O)c4cc5cc(C(F)(F)P(=O)(O)O)ccc5s4)C(=O)N32)C[C@@H]1C1CCCCC1 (racemic) [Compound 91]
RESULT: 5.00 to 6.00
//
COMPOUND: O=C(N[C@H]1C[C@H](O)CC[C@H]2CC[C@@H](C(=O)N3CC(C(=O)N4CCOCC4)C3)N2C1=O)c1cc2cc(C(F)(F)P(=O)(O)O)ccc2s1 [Compound 3]
RESULT: 6.00 to 7.00
//
COMPOUND: CN(C)S(=O)(=O)N1CCN(C(=O)[C@@H]2CC[C@@H]3CCCC[C@H](NC(=O)c4cc5cc(C(F)(F)P(=O)(O)O)ccc5s4)C(=O)N32)CC1 [Compound 87]
RESULT: 6.00 to 7.00

Query :: Give recorded pIC50. CC(=O)N1C[C@H](NC(=O)[C@@H]2CC[C@@H]3CCCC[C@H](NC(=O)c4cc5cc(C(F)(F)P(=O)(O)O)ccc5s4)C(=O)N32)[C@@H](O)C1 [Compound 116]
Result :: 6.00 to 7.00

Query :: Give reported pIC50 value for O=C(N[C@H]1C[C@H](OCc2ccccc2)CC[C@H]2CC[C@@H](C(=O)N3CC(C(=O)N4CCOCC4)C3)N2C1=O)c1cc2cc(C(F)(F)P(=O)(O)O)ccc2s1 [Compound 7]
Result :: 6.00 to 7.00

Query :: Specify pIC50 for N#C[C@@H]1CN(C(=O)[C@@H]2CC[C@@H]3C[C@@H](N4CCC4)CC[C@H](NC(=O)c4cc5cc(C(F)(F)P(=O)(O)O)ccc5s4)C(=O)N32)C[C@H]1c1ccccc1 (relative stereo) [Compound 21] and stop.
Result :: 5.00 to 6.00

Query :: Note down pIC50 recorded for N#C[C@@H]1CN(C(=O)[C@@H]2CC[C@@H]3CCCC[C@H](NC(=O)c4ccc5ccc(C(F)(F)P(=O)(O)O)cc5c4)C(=O)N32)C[C@H]1c1cc[nH]c(=O)c1 (relative stereo) [Compound 83]
Result :: 6.00 to 7.00

Query :: Hello, please tell me recorded pIC50 for this one: O=C(N[C@H]1CCCC[C@H]2CC[C@@H](C(=O)N3CC(C4CCOCC4)C3)N2C1=O)c1cc2cc(C(F)(F)P(=O)(O)O)ccc2s1 [Compound 118A]
Result :: 6.00 to 7.00

Query :: Provide pIC50 value for the following compound: O=C(N[C@H]1CCCC[C@H]2CC[C@@H](C(=O)N3CC(c4cccnc4)C3)N2C1=O)c1cc2cc(C(F)(F)P(=O)(O)O)ccc2s1 [Compound 117]
Result :: > 7.00
